Test system: peripheral blood lymphocytes stimulated by OKT3 antibody (anti-CD3)
Test: OKT3 stimulation assay, [3H]TdR incorporation
Assay type: cell-based, human
Details: Reverse Prenyl Compounds; read-out: IC50 OKT3 Assays
readout.label: pIC50
Answer as the number alone; pIC50 is minus log10 of concentration in mol/L.

molecule	pIC50
C=CC(C)(C)[C@@]12C[C@H]3c4nc5ccccc5c(=O)n4CC(=O)N3[C@@H]1N(C(C)=O)c1ccccc12 [5-N-acetyl-8-demethylardeemin, 5-N-acetyl-8-desmethylardeemin]	5.95

input: Determine reported pIC50 for C=CC(C)(C)[C@@]12C[C@H]3c4nc5ccccc5c(=O)n4[C@H](C)C(=O)N3[C@@H]1N(C(C)=O)c1ccccc12 [5-N-acetylardeemin] ; test system: peripheral blood lymphocytes stimulated by OKT3 antibody (anti-CD3).
output: 4.50

input: Determine reported pIC50 for C=CC(C)(C)[C@@]12Nc3ccccc3[C@]1(O)C[C@H]1C(=O)N3[C@@H](C[C@]4(O)c5ccccc5N[C@]34C(C)(C)C=C)C(=O)N12 [Gypsetin] ; test system: peripheral blood lymphocytes stimulated by OKT3 antibody (anti-CD3).
output: 4.92
